The following binders are shown together with reported % Binding retained on T-cells, 60° C. values.
- SUBJECT_OF_TEST: T1, CD3 on primary human pan T cells (human, UniProt P07766 23-207)
- T1 construct: on cells it stands in the TCR/CD3 complex; also called Pan T-cells (CD3-positive); endogenous CD3
- ASSAY_DETAILS: flow cytometry, pan T-cells
Numeric only. Scale: fraction

# count of solved cases: 2
# input For CD3B2058 (scFv) scFv: QVQLVQSGAEVKKPGSSVKVSCKASGYTFTRSTMHWVKQAPGQGLEWIGYINPSSAYTNYAQKFQGRVTLTADKSTSTAYMELSSLRSEDTAVYYCASPQVHYDYNGFPYWGQGTLVTVSSGGSEGKSSGSGSESKSTGGSEIVLTQSPATLSASPGERVTLSCSASSSVSYMNWYQQKPGTSPRRWIYDSSKLASGVPARFSGSGSGRDYTLTISSLEPEDFAVYYCQQWSRNPPTFGGGTKVEIK , what is its reported % Binding retained on T-cells, 60° C.?
# output 0.808

# input For CD3B2080 (scFv) scFv: QVQLVQSGAEVKKPGSSVKVSCKASGYTFTRSTMHWVRQAPGQGLEWIGYINPSSAYTNYAQKFQGRVTLTADKSTSTAYMELSSLRSEDTAVYYCASPQVHYDYNGFPYWGQGTLVTVSSGGSEGKSSGSGSESKSTGGSEIVLTQSPATLSASPGERVTLSCSASSSVSYMNWYQQKPGQSPRRWIYDSSKLASGVPARFSGSGSGRDYTLTISSLEPEDFAVYYCQQWSRNPPTFGGGTKVEIK , what is its reported % Binding retained on T-cells, 60° C.?
# output 1.13

Alright, here's another binder for you.
# input For CD3B2041 (scFv) scFv: QVQLVQSGAEVKKPGSSVKVSCKASGYTFTRSTMHWVRQAPGQGLEWIGYINPSSAYTNYNQKFQGRVTLTADKSTSTAYMELSSLRSEDTAVYYCASPQVHYDYNGFPYWGQGTLVTVSSGGSEGKSSGSGSESKSTGGSEIVLTQSPATLSASPGERVTLSCSASSSVSYMNWYQQKPGTAPRRWIYDSSKLASGVPARFSGSGSGRDYTLTISSLEPEDFAVYYCQQWSRNPPTFGGGTKVEIK , what is its reported % Binding retained on T-cells, 60° C.?
# output 1.11
